- test: Half-life (2 mg/kg, i.v.) was determined in Sprague-Dawley rats
- Type: ADME, organism-based
- condition: rat, in vivo, iv
For each entry below, report its half-life value.
# number only, unit h dropped from output

// sample CCOc1cccnc1Nc1ccccn1 , its half-life was 0.8

// sample CCOc1cccnc1Nc1cccc(C)n1 , its half-life was 2.1

// sample CCOc1cc(Oc2cccnc2)cnc1Nc1cccc(C)n1 , its half-life was 1.2

// sample CCOc1nccnc1Nc1cccc(C)n1 , its half-life was 1

// sample CCOc1cc(-c2cccc(F)c2)cnc1Nc1cccc(C)n1 , its half-life was 0.5

// sample CCCc1cccnc1Nc1cccc(C)n1 , its half-life was 1

// sample CCOc1cc(C#N)cnc1Nc1cccc(C)n1 , its half-life was 1.6

// sample CCOc1cc(-c2cccnc2)cnc1Nc1cccc(C)n1 , its half-life was 1

// sample CCOc1cc(-c2cncnc2)cnc1Nc1cccc(C)n1 , its half-life was 0.6

// sample CCOc1cc(-c2cnccc2C)cnc1Nc1cccc(C)n1 , its half-life was 0.7

// sample CCOc1cc(-c2ccccn2)cnc1Nc1cccc(C)n1 , its half-life was 1
